TEST_DETAILS: ATG_TA_CIS: Attagene CIS-FACTORIAL HepG2 Assay for human TA Basal Promoter (AID 2282964)
EXPERIMENTAL_CONDITIONS: HepG2 Attagene CIS-factorial TA basal promoter reporter; actives raise or lower the signal
Active and inactive are the calls of the source. Rule for the calls: active = hit-call score of the fitted dose curve at least 0.9, where 1 is the maximum; inactive = score below 0.9.
Labels: active, inactive

SMILES_STRING	CATEGORY
CC(C)(C)C1=CC(=O)C(C(C)(C)C)=CC1=O	inactive
CCc1cc(Cc2cc(CC)cc(C(C)(C)C)c2O)c(O)c(C(C)(C)C)c1	active
CCCCCCC(C)(C)S	inactive
COc1cccc(OC)c1O	inactive
CN(C)C(=S)SC(=S)N(C)C	inactive
O=C1OC(=O)c2c(Cl)c(Cl)c(Cl)c(Cl)c21	inactive
Cc1ncc[nH]1	inactive
